Provenance of the data: patent EP4534554A1

Below: a set of entries, each annotated with reported EC50 of peptide.
tested_on: T1, MAGE-A1 peptide on HLA-A*02:01 (human)
T1 peptide: KVLEYVIKV
assay_info: JKR9 reporter + peptide-loaded T2, 16 h; full-length, on cells
Numbers only here, please. The scale is nM.

Below are worked cases with known answers.
Query: What value of measured EC50 of peptide is listed for ht27M1401 (TCR, V domains shown) Valpha: GEDVEQSLFLSVREGDSSVINCTYTDSSSTYLYWYKQEPGAGLQLLTYIFSNMDMKQDQRLTVLLNKKDKHLSLRIADTQTGDSAIYFCAGSGGGTDKLIFGTGTRLQVFP Vbeta: GAVVSQHPSWVICKSGTSVKIECRSLDFQATTMFWYRQFPKQSLMLMATTQPLSKATYEQGVEKDKFLINHASLTLSTLTVTSAHPEDSSFYICSAREPGQGPYEQYFGPGTRLTVT ?
Response: 90.5

Query: What value of EC50 of peptide has been reported for the following binder? ht27M1170 (TCR, V domains shown) Valpha: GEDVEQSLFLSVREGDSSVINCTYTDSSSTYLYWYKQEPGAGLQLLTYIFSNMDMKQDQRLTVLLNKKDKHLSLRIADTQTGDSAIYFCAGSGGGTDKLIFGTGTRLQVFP Vbeta: GAVVSQHPSWVICKSGTSVKIECRSLDFQATTMFWYRQFPKQSLMLMATSNEGSKATYEQGVEKDKFLINHASLTLSTLTVTSAHPEDSSFYICHAREPGQGPYEQYFGPGTRLTVT
Response: 425

Next:
Query: What does the record list as EC50 of peptide for ht27M1002 (TCR, V domains shown) Valpha: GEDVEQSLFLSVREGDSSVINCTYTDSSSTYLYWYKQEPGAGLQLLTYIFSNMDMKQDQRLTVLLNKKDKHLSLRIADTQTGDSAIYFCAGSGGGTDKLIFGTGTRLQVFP Vbeta: GAVVSQHPSWVICKSGTSVKIECRSLDFQATTMFWYRQFPKQSLMLMATSNEGSKATYEQGVEKDKFLINHASLTLSTLTVTSAHPEDSSFYICSAREPGGGPYEQYFGPGTRLTVT ?
Response: 1360
